Documented IC50 across a set of compounds
- system: CK1ε (Homo sapiens)
- Sequence (P49674 whole entry): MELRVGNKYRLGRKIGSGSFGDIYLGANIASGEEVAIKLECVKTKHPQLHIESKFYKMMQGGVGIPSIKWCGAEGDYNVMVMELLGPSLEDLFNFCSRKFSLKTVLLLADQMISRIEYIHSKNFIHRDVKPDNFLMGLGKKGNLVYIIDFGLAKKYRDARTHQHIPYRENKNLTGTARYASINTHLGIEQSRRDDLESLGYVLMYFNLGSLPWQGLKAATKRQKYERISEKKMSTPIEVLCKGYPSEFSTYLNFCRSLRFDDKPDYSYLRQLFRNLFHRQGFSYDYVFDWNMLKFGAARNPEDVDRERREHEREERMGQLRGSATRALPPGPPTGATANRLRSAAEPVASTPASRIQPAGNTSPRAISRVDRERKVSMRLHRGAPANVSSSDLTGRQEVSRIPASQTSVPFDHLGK
State the answer as a number, implicitly in µM.

Please review the following examples before continuing.
{"structure_notation": "CC(C)Oc1ccc(-c2nn([C@@H](C)c3oc4ccc(F)cc4c(=O)c3-c3cccc(F)c3)c3ncnc(N)c23)cc1F", "system": "CK1ε (Homo sapiens)", "unit_abbreviation": "µM", "number": 6}
{"structure_notation": "Nc1ncnc2c1c(COc1cccc(Cl)c1)nn2C1CCOCC1", "system": "CK1ε (Homo sapiens)", "unit_abbreviation": "µM", "number": 0.0074}

Please examine the following record next.
What does the record list as IC50 for "CC(C)Oc1ccc(-c2nn([C@@H](C)c3nc4cccc(F)c4c(=O)n3-c3ccccc3)c3ncnc(N)c23)cc1F" ?
9.4

Where these numbers come from: patent US20190070183A1
